Hello, the source for this data is paper PMC8894159, in case you need it.

methodDescription: Relative bioavailability of capsule versus solution and food effect (10 mg)
Format: in vivo, human
testParameters: human, plasma, oral, 10 mg, 10 mg capsules, fasted
measuredProperty: Tmax

response.value for Cl.N#Cc1cccc(-c2ccc3ncc(-c4cc(F)cc(F)c4)c(N4CCC(N)CC4)c3c2)c1O [paltusotine] (field: Tmax) = 2.1 h

---

methodDescription: Multiple ascending dose plasma pharmacokinetics in healthy volunteers
Assay type: in vivo, human
testParameters: human, plasma, oral, 30 mg, 30 mg capsules once daily, Day 10; mean ± SD
measuredProperty: Cmax
Answer with the figure and its unit, nothing else.

response.value for Cl.N#Cc1cccc(-c2ccc3ncc(-c4cc(F)cc(F)c4)c(N4CCC(N)CC4)c3c2)c1O [paltusotine] (field: Cmax) = 154 ng/mL

---

methodDescription: Multiple ascending dose plasma pharmacokinetics in healthy volunteers
Type: in vivo, human
testParameters: human, plasma, oral, 30 mg, 30 mg capsules once daily, Day 1; mean ± SD
measuredProperty: Tmax (h)
Numbers only here, please. The scale is h.

response.value for Cl.N#Cc1cccc(-c2ccc3ncc(-c4cc(F)cc(F)c4)c(N4CCC(N)CC4)c3c2)c1O (field: Tmax) = 1.4

---

methodDescription: Single ascending dose plasma pharmacokinetics in healthy volunteers
Format: in vivo
testParameters: human, single dose 10 mg oral solution, fasted, mean ± SD, read-out: t1/2 (converted)
measuredProperty: half-life (h)
Numbers only here, please. The scale is h.

response.value for Cl.N#Cc1cccc(-c2ccc3ncc(-c4cc(F)cc(F)c4)c(N4CCC(N)CC4)c3c2)c1O (field: half-life) = 29

---

methodDescription: Single ascending dose plasma pharmacokinetics in healthy volunteers
Assay type: in vivo
testParameters: human, single dose 20 mg oral solution, fasted, mean ± SD
measuredProperty: AUC(0-inf) (ng·h/mL)
Numbers only here, please. The scale is ng·h/mL.

response.value for Cl.N#Cc1cccc(-c2ccc3ncc(-c4cc(F)cc(F)c4)c(N4CCC(N)CC4)c3c2)c1O (field: AUC(0-inf)) = 2960

---

methodDescription: Multiple ascending dose plasma pharmacokinetics in healthy volunteers
Format: in vivo, human
testParameters: human, plasma, oral, 10 mg, 10 mg capsules once daily, Day 1; mean ± SD; read-out: AUC0-24
measuredProperty: AUC(0-t)
Answer with the figure and its unit, nothing else.

response.value for Cl.N#Cc1cccc(-c2ccc3ncc(-c4cc(F)cc(F)c4)c(N4CCC(N)CC4)c3c2)c1O (field: AUC(0-t)) = 661 ng·h/mL

---

methodDescription: Multiple ascending dose plasma pharmacokinetics in healthy volunteers
Assay type: in vivo, human
testParameters: human, plasma, oral, 20 mg, 20 mg capsules once daily, Day 10, sampling to 240 h; mean ± SD; read-out: t1/2 (converted)
Description: In the single-dose phase, participants were randomized 6:2 to paltusotine (1.25, 2.5, 5, 10, 20, 40, and 60 mg) or placebo in 7 cohorts (S1 to S7). […] Plasma pharmacokinetic sample analysis for paltusotine was determined using validated procedures by CPR Pharma Services (Thebarton, Australia). Briefly, plasma paltusotine concentrations were determined by high-pressure liquid chromatography (HPLC) coupled with tandem mass spectrometry detection (MS/MS). […]
measuredProperty: half-life
Answer with the figure and its unit, nothing else.

response.value for Cl.N#Cc1cccc(-c2ccc3ncc(-c4cc(F)cc(F)c4)c(N4CCC(N)CC4)c3c2)c1O (field: half-life) = 3000 min

---

methodDescription: Multiple ascending dose plasma pharmacokinetics in healthy volunteers
Assay type: in vivo, human
testParameters: human, plasma, oral, 10 mg, 10 mg capsules once daily, Day 10; mean ± SD; read-out: AUC0-24
measuredProperty: AUC(0-t) (ng·h/mL)
Numbers only here, please. The scale is ng·h/mL.

response.value for Cl.N#Cc1cccc(-c2ccc3ncc(-c4cc(F)cc(F)c4)c(N4CCC(N)CC4)c3c2)c1O (field: AUC(0-t)) = 956
